Exercise: state measured melting point for each of the compounds provided.

// known answers, use as guide
[
  {
    "compound": "Cc1cc(C)c(N2CCCCC2=O)cc1NS(=O)(=O)C(F)(F)F",
    "assay result": "260 to 266 °C"
  },
  {
    "compound": "NS(=O)(=O)c1cc2cc[nH]c(=O)c2o1",
    "assay result": "290 to 291 °C"
  },
  {
    "compound": "CC(C)OP(=O)(CCCCC1(C(=O)NCC(F)(F)F)c2ccccc2-c2ccccc21)OC(C)C",
    "assay result": "91 to 94 °C"
  }
]

Batch: melting point for all items listed.
1. O=S(=O)(Nc1ccc2c(OCc3csc(-c4ccc(F)cc4F)n3)cccc2c1)C(F)(F)F
2. CC(/C=C/c1c(C)oc(C)c1C)=C\C=C\C(C)=C\C(=O)O
3. CC(=O)NC[C@H]1CN(c2ccc(-c3nc(Cn4cccn4)cs3)c(F)c2)C(=O)O1
4. O=C1CC2(CCC2)C(CC(Cl)(Cl)Cl)O1 (stereo unspecified)

Given back:
1: 191 to 192 °C; 2: 213 to 214 °C; 3: 178 to 180 °C; 4: 86.5 to 87.5 °C

====

Exercise: state measured melting point for each of the molecules provided.

// known answers, use as guide
[
  {
    "molecule": "CC(=O)Nc1ccc(CCNc2nc(C)nc3sc(C)cc23)cc1",
    "melting point": "248 °C"
  },
  {
    "molecule": "COc1ccc(OC)c2c1ccn2Cc1ccc(Cl)cc1",
    "melting point": "62 to 63 °C"
  },
  {
    "molecule": "COc1cc(C=CC(=O)CCCOc2ccccc2)ccc1O",
    "melting point": "67 to 70 °C"
  }
]

Batch: melting point for all items listed.
1. Cn1cc(C(=O)C(Cl)Cl)c(=O)c(-c2cccc(Cl)c2)c1
2. O=C(O)c1ccc(C=C(C(=O)C2CC2)C(=O)C2CC2)cc1
3. CC(C)NC(=NC(=O)OC(C)(C)C)N=C1NC(=O)C(=O)N1c1ccc(Cl)c(Cl)c1
4. OC1CCCc2cnc3cc(OCc4ccccc4)ccc3c21 (stereo not given)
5. Cc1ccc(NC(=O)Nc2cccc(Oc3ccc4nc(COc5ccc(CC6SC(=O)NC6=O)cc5)n(C)c4c3)c2)cc1 (stereo not given)

Given back:
1. 201 to 202 °C
2. 175 to 178 °C
3. 227 °C
4. 155 to 157 °C
5. 173 to 175 °C

====

Exercise: state measured melting point for each of the molecules provided.
Give bare numbers, in °C.

Batch: melting point for all items listed.
1. CC(C)CNc1nc(-c2ccccc2)c(Cl)n2c(Br)cnc12
2. OC(COc1ncnc2nc[nH]c12)CN1CCN(C(c2ccccc2)c2ccccc2)CC1 (centres undefined)
3. Cc1c(-c2ccc(F)cc2)c(-c2ccc(S(C)(=O)=O)cc2)c2n1CCC2
4. N#Cc1cc([N+](=O)[O-])ccc1Oc1ccc(Cl)cc1Cl

Given back:
1: 138; 2: 115; 3: 191; 4: 154

====

measured endpoint: melting point

// known answers, use as guide
[
  {
    "molecule": "Cc1cc(C)cc(NC(=O)NC2N=C(c3ccccc3)c3ccccc3N(C)C2=O)c1 (stereo not given)",
    "assay result": "267 to 269 °C"
  },
  {
    "molecule": "CC(C)c1cn(C(C)(C)C(=O)N(C)C)nc1-c1ccccc1",
    "assay result": "80.5 to 82.5 °C"
  },
  {
    "molecule": "COc1ccc2c(c1)SC(C#N)=C(N)CO2",
    "assay result": "203 to 205 °C"
  }
]

Batch: melting point for all items listed.
1. CCCCC[C@H]1CC[C@H](c2ccc(-c3ccc(CO)cc3)cc2)CC1
2. COc1ccc(NC(=O)NC2CCN(Cc3ccccc3)CC2)c(CCc2cc(C(C)(C)C)c(O)c(C(C)(C)C)c2)c1

Given back:
1: 180 °C; 2: 174 to 175 °C

Batch: melting point for all items listed.
1. CCC12CCC3C4CCC(=O)C=C4CCC3C1CCC2OC (stereo not given)
2. CCOC(Cc1ccc(OCCN2CCSc3ccccc32)cc1)C(=O)O (single isomer, unassigned; (-))
3. O=C(O)C=C1c2ccccc2CCc2cc(Cl)ccc21
4. COc1ccc(CNS(=O)(=O)CCCCl)cc1

Given back:
117 to 119 °C
110 °C
155 to 175 °C
78 to 80 °C

Asked: // lookup melting point for Nc1c(F)cc(Cl)cc1C(O)(C#CC1CC1)C(F)(F)F (stereo not given)
Given back: 131 to 135 °C

====

measured endpoint: melting point

[
  {
    "molecule": "CC[C@H](c1ccc(C(F)(F)F)cc1)N(Cc1ccc(C(=O)O)cc1)S(=O)(=O)c1ccc(Cl)cc1",
    "melting point": "105 to 107 °C"
  },
  {
    "molecule": "COC(=O)c1ccc(Cn2c(=O)c3cc(C(=O)NCc4cccc(OC)c4)sc3n(C)c2=O)cc1OC",
    "melting point": "200 to 203 °C"
  },
  {
    "molecule": "CCn1c(=O)c(Oc2ccc(F)cc2F)cc2cnc(NC3CCOCC3)nc21",
    "melting point": "199 to 206 °C"
  },
  {
    "molecule": "O=C(O)CCC(Cc1ccccc1Cl)(C(=O)C=Cc1c(Cl)cccc1Cl)c1ccccc1 (stereo not drawn)",
    "melting point": "140 to 143 °C"
  },
  {
    "molecule": "Cn1cc(-c2cccc(N3Cc4cc(C(C)(C)C)ccc4C3=O)c2CO)cc(Nc2ccc(C3CNC3)cn2)c1=O",
    "melting point": "185 to 186 °C"
  },
  {
    "molecule": "CC(C)c1ccccc1Sc1c(O)cc(-c2ccc(-c3cccnc3)cc2)oc1=O",
    "melting point": "145 to 147 °C"
  }
]

Batch: melting point for all items listed.
1. COc1ccc(CCN(CCc2ccc(-c3ccccc3)cc2)C(=O)CCCCC(N)=O)cc1OC
2. CCCCCCCC(=O)c1c(C(=O)CCCCCCC)c(-c2ccccc2)n(-c2ccc(C)cc2)c1-c1ccccc1

Given back:
177 to 179 °C
51 to 53 °C

====

Exercise: state measured melting point for each of the compounds provided.

// known answers, use as guide
[
  {
    "compound": "CCC(C)(Oc1ccc(OCc2cc(-c3ccc(O)cc3)no2)cc1)C(=O)O (stereo not given)",
    "assay result": "142 to 144 °C"
  },
  {
    "compound": "COc1ccc(-n2ncc(C(=O)O)c2Cl)cc1",
    "assay result": "241 to 242 °C"
  },
  {
    "compound": "Cc1ccc(-n2nc(C(=O)NC(C)(C)C)c3c2C2CCC3C2)cc1 (stereo not given)",
    "assay result": "135 to 137 °C"
  },
  {
    "compound": "CC1(C)OC(C(F)(F)F)Nc2ccc(-c3cc(F)cc(C#N)c3)cc21 (stereo not given)",
    "assay result": "102 to 103 °C"
  },
  {
    "compound": "COc1ccc(-c2cc(-c3ccccc3)c(-c3ccccc3)s2)cc1F",
    "assay result": "118 to 122 °C"
  },
  {
    "compound": "CCCN(CCC)C(=O)c1cc(C(=O)N[C@@H](Cc2cc(F)cc(F)c2)[C@H](O)CNCc2cc(CN(C)C)ccn2)cc(-c2ncco2)c1",
    "assay result": "65 to 68 °C"
  }
]

Batch: melting point for all items listed.
1. COC(=O)C(C)NC(=O)C1C(C)(C)CCC1(C)C (stereo not given)
2. O=C(CC=C(Cl)C1(Cl)OC1=O)c1ccccc1 (stereo not given)
3. COc1ccc(C(=O)c2cc(OC)ccc2O)cc1
4. COC(=O)C1=C(C)NN=C(C(=O)OC(C)C)C1c1ccccc1Cl (stereo not given)

Given back:
86.7 °C
121 to 122 °C
70 to 72 °C
166 °C

====

Exercise: state measured melting point for each of the compounds provided.
Answers are plain numbers, in °C.

[
  {
    "smiles": "COc1ccc(Cl)c(Oc2cnc(-c3ncccn3)nc2C=O)c1",
    "assay result": 211
  }
]

Moving on to another compound below.
Asked: // lookup melting point for Nc1nnc(C(F)(F)C(Cl)Cl)o1
Given back: 171

====

measured endpoint: melting point

// known answers, use as guide
[
  {
    "compound": "O=C(SCC(=O)N1c2ccccc2CCC1C(=O)O)c1ccccc1 (centres undefined)",
    "measured endpoint": "melting point",
    "assay result": "164 to 168 °C"
  },
  {
    "compound": "O=C(NCc1ccc(F)cc1)Nc1ccc(CN2C(=O)[C@H]3CCC[C@H]3N(C(=O)CCl)c3ccccc32)cc1 (relative stereo)",
    "measured endpoint": "melting point",
    "assay result": "202 to 203 °C"
  },
  {
    "compound": "Cc1c(S(=O)(=O)Nc2ccc(-c3nc(C(=O)O)co3)cc2S(C)(=O)=O)sc2ccc(F)cc12",
    "measured endpoint": "melting point",
    "assay result": "289 to 291 °C"
  },
  {
    "compound": "COC(=O)Cc1ccccc1OCc1ccc(OCc2nc(-c3ccccc3)sc2C)nc1",
    "measured endpoint": "melting point",
    "assay result": "119 to 120 °C"
  },
  {
    "compound": "O=C1CC2CC(O)(c3ccccc3)CC2C1 (centres undefined)",
    "measured endpoint": "melting point",
    "assay result": "158 to 159 °C"
  },
  {
    "compound": "CCCCOc1ccc(NC(=O)c2cnc(C(=O)OC)c(Cl)c2)cc1",
    "measured endpoint": "melting point",
    "assay result": "121 to 123 °C"
  }
]

Batch: melting point for all items listed.
1. CCCC(=O)NCc1ccc(NC(=O)/C=C/c2cnn(C)c2-c2ccc(F)cc2)cc1
2. CCS(=O)(=O)CCC(=O)NNC(=O)N1Cc2ccccc2Oc2ccc([N+](=O)[O-])cc21
3. COc1ccc2c(N)cccc2c1C(F)(F)F

Given back:
["259 to 260 °C", "198 to 200 °C", "120 °C"]

meta.source: a melting point compilation (Tetko et al.; mined from patent text by program, amines drawn as free bases though some values may be those of a salt)
